Test system: DAN-G cells
Experiment: Proliferation inhibition test, concentration/time dependency
Format: cell-based, Human
Details: drug exposure 48 hours, 72 hours total culture, concentration in terms of DACH-platin, read-out: IC50, 48 hours
measuredEndpoint: IC50 (nM)

compound: O=C1[O][Pt]2([NH][C@@H]3CCCC[C@H]3[NH]2)[O]C1=O [l-OHP, Oxaliplatin]
measuredEndpoint: IC50
valueUnits: nM
assayValue: 900

====

System: DAN-G cells
Assay: Proliferation inhibition test, concentration/time dependency
Type: cell-based, Human
Conditions: drug exposure 72 hours, concentration in terms of DACH-platin, read-out: IC50, 72 hours
pIC50: −log10 of the molar value.
measuredEndpoint: pIC50

sampleSmiles: O=C1[O][Pt]2([NH][C@@H]3CCCC[C@H]3[NH]2)[O]C1=O
assayedTarget: DAN-G cells
assayValue: 6.05
